These entries and their values trace back to the supplement of paper PMC6555819.

Test system: PPARg DBDmut IVT, anti-PPARg (DBD mutation: PPARg1 K132A/R137A, NR concentration 270 nM)
Experiment: PBM binding z-score (relative to random genomic background probes); higher = stronger binding; sequences stand for … in GC…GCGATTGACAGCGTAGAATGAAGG
reported.metric: PBM binding z-score
Response field accepts a number only; no unit should be typed.

// query Any idea what its PBM binding z-score is? The sequence is TCTAGTTGGTCAAAGGTTACACACTCGAAATGCG
// result 2.3

// query Any idea what its PBM binding z-score is? The sequence is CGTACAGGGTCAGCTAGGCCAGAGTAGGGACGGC
// result -0.287

// query Any idea what its PBM binding z-score is? The sequence is TCTTGTAGATCAGCAAGTTAAGAAAGCTGGCCAA
// result -0.449

// query Any idea what its PBM binding z-score is? The sequence is ATCTCTAGGTAAAGGTTCAGTGAATCCCGAGGAT
// result 0.461

// query Any idea what its PBM binding z-score is? The sequence is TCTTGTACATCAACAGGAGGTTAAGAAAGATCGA
// result 1.51

// query Any idea what its PBM binding z-score is? The sequence is AGAACGAGGGCACGCTGAGTTGATAGGAGAGTAG
// result 0.276

// query Any idea what its PBM binding z-score is? The sequence is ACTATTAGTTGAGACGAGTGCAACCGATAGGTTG
// result 0.584

// query Any idea what its PBM binding z-score is? The sequence is AATACAGGGTCATCCTAGGCCAGAGTACGCACAG
// result 1.39

// query Any idea what its PBM binding z-score is? The sequence is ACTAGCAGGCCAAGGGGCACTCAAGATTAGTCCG
// result -0.646

// query Any idea what its PBM binding z-score is? The sequence is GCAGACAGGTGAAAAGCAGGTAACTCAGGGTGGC
// result -1.28

// query Any idea what its PBM binding z-score is? The sequence is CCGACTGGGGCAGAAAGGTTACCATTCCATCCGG
// result -1.28

// query Any idea what its PBM binding z-score is? The sequence is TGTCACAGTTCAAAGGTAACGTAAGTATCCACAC
// result 1.01
